- Test system: CFP-T7
- experiment.notes: Surfactant resistance of amadoriase in presence of buffering agents
- Format: biochemical, genus Coniochaeta
- setup.conditions: Buffer Solution 50 mM; 0.01% CTAC; pH 7.0 (citrate pH 6.0); purified CFP-T7
I'd appreciate it if you could supply CFP-T7 Residual Activity (%) values for the items below.
Answers are plain numbers, in %.

A selection of reference data follows.
compound	recorded.endpoint	scale.unit	observed.value
O=S(=O)(O)CCN1CCOCC1 [MES, 2-(N-morpholino)ethanesulfonic acid]	CFP-T7 Residual Activity (%)	%	14.3
O=P(O)(O)O [Phosphate, phosphoric acid]	CFP-T7 Residual Activity (%)	%	27.2
O=S(=O)(O)CCN1CCN(CCO)CC1 [HEPES, reference compound]	CFP-T7 Residual Activity (%)	%	13.2

Continue with the next compound.
input: Check the records and state CFP-T7 Residual Activity (%) for O=C(O)CC(O)(CC(=O)O)C(=O)O [Citrate, citric acid]
output: 108.2
